Test system: S. cerevisiae BY4741 (wild-type), vegetative growth in YPD
Assay: growth sensitivity score (doubling time z-score vs DMSO controls); higher = slower growth, strongly negative scores also mark growth inhibition (complete suppression), active = hit call of the paper
Where a name gives a salt, the structure may show the parent alone.
Please respond with reported growth sensitivity score for every item in the list.
Give bare numbers.

Name the recorded growth sensitivity score for NNCCc1ccccc1 [Phenelzine sulfate salt] (stock concentration (mM, diluted 1:100): 10) .
0.3

Provide each entry's growth sensitivity score from the list below.
1. CCOC(=O)[C@H](CCc1ccccc1)N[C@@H](C)C(=O)N1[C@H](C(=O)O)C[C@@H]2CCC[C@@H]21 [Ramipril] (stock concentration (mM, diluted 1:100): 10)
2. Clc1cccc(Cl)c1NC1=NCCN1 [Clonidine] (stock concentration (mM, diluted 1:100): 10)
3. CC(=O)O[C@@]12CO[C@@H]1C[C@H](O)[C@@]1(C)C(=O)[C@H](O)C3=C(C)[C@@H](OC(=O)[C@H](O)[C@@H](NC(=O)OC(C)(C)C)c4ccccc4)C[C@@](O)([C@@H](OC(=O)c4ccccc4)[C@H]21)C3(C)C [Docetaxel] (stock concentration (mM, diluted 1:100): 10)
4. CCOc1cc(N)c(Cl)cc1C(=O)NCC1CN(Cc2ccc(F)cc2)CCO1 (stereo not given) [Mosapride citrate] (stock concentration (mM, diluted 1:100): 6.9)

1: -0.9; 2: -1.97; 3: 1.16; 4: 3.25

* * *

Tested on: S. cerevisiae AD1-9 (efflux-pump deficient), vegetative growth in YPD
Test: growth sensitivity score (doubling time z-score vs DMSO controls); higher = slower growth, strongly negative scores also mark growth inhibition (complete suppression), active = hit call of the paper; in the data active = 2 or more and inactive = the rest
Where a name gives a salt, the structure may show the parent alone.
Write down the outcome that applies. Available outcomes: active, inactive

Sample answers from the record:
Query: recorded result category for CC(C(=O)O)c1ccc(-c2ccccc2)c(F)c1 (configuration not stated) [Flurbiprofen] (stock concentration (mM, diluted 1:100): 11.4) in this test
inactive

Query: recorded result category for Nc1nc(N)nc(-c2cc(Cl)ccc2Cl)n1 [Irsogladine maleate] (stock concentration (mM, diluted 1:100): 6.9) in this test
inactive

Query: recorded result category for NC(=O)c1cccnc1 [Nicotinamide] (stock concentration (mM, diluted 1:100): 10) in this test
inactive

Query: recorded result category for NC(N)=NC(=O)c1nc(Cl)c(N)nc1N (stock concentration (mM, diluted 1:100): 8.2) in this test
active

Query: recorded result category for OC[C@H]1O[C@@H](n2cnc3c(N[C@H]4CCC[C@@H]4O)ncnc32)[C@@H](O)C1O (some centres not stated) (stock concentration (mM, diluted 1:100): 10) in this test
inactive

Continuing:
Query: recorded result category for CC(C(=O)O)c1ccc(CC2CCCC2=O)cc1 (configuration not stated) [Loxoprofen sodium] (stock concentration (mM, diluted 1:100): 9.1) in this test
inactive

* * *

Tested on: S. cerevisiae BY4741 (wild-type), vegetative growth in YPD
Assay: growth sensitivity score (doubling time z-score vs DMSO controls); higher = slower growth, strongly negative scores also mark growth inhibition (complete suppression), active = hit call of the paper
Structures can show the parent of a compound that is named as a salt.
endpoint.name: growth sensitivity score
Answers are plain numbers.

Provide each entry's growth sensitivity score from the list below.
1. COc1cc(CNC(=O)CCCC/C=C/C(C)C)ccc1O [Capsaicin] (stock concentration (mM, diluted 1:100): 10)
2. Cc1onc(-c2ccccc2)c1-c1ccc(S(N)(=O)=O)cc1 [Valdecoxib] (stock concentration (mM, diluted 1:100): 10)
3. COc1nc(C)nc(Cl)c1NC1=NCCN1 [Moxonidine hydrochloride] (stock concentration (mM, diluted 1:100): 9.2)
4. CNCC[C@@H](Oc1ccccc1C)c1ccccc1 [Atomexetine hydrochloride] (stock concentration (mM, diluted 1:100): 8.7)
5. CCN1CC(CCN2CCOCC2)C(c2ccccc2)(c2ccccc2)C1=O (stereo unspecified) [Doxapram hydrochloride] (stock concentration (mM, diluted 1:100): 10.4)

1. 3.2
2. 0.72
3. 0.19
4. 0.06
5. -0.29

Provide each entry's growth sensitivity score from the list below.
1. CC1CCN(CCCC(=O)c2ccc(F)cc2)CC1 [Metylperon] (stock concentration (mM, diluted 1:100): 10)
2. CN1C2CCCC1CC(NC(=O)c1nn(C)c3ccccc13)C2 (stereo unspecified) [Granisetron hydrochloride] (stock concentration (mM, diluted 1:100): 9)

1.93
-0.57
